assay: protein stability index of a GFP-peptide fusion (GPS, HEK-293T) (PSI 1-6); higher = more stable; conditions: treatment: MLN4924 1 uM, 8 h; c terminus: a fixed tail appended;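 also: 24-mer peptide tiles fused after GFP, lentivirally expressed, FACS-sorted into six equal bins by GFP/DsRed ratio, decoded by Illumina sequencing, PSI is the read-weighted mean bin number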
Binning of protein stability index into classes: lo = under 3, mid = from 3 up to 4, hi = 4 and over

Query: Field: class (protein stability index) — entry: ESLPRSEIDEKVTDLVQFLLFKYQ [MAGEA10]
Result: lo

Query: Field: class (protein stability index) — entry: VLRGRLYAIAGYDGNSLLSSIECY [KLHL12]
Result: lo

Query: Field: class (protein stability index) — entry: VSPPESPTVTTSWQSESLPVSLSA [BCL2L13]
Result: hi

Query: Field: class (protein stability index) — entry: RRKEEEVQQQKLAEERRRQNLQEE [FAF2]
Result: hi

Query: Field: class (protein stability index) — entry: YIHFFHTVLKQIAPEYFEKNEPYL [DENND6A]
Result: lo

Query: Field: class (protein stability index) — entry: AMCVRYDGVEVDDSYCDALTRPEP [ADAMTSL2]
Result: hi

Query: Field: class (protein stability index) — entry: NRGNSAGGLQHRVTAKTAPDVLRT [PTPRD]
Result: mid

Query: Field: class (protein stability index) — entry: YICPDYQSYFKTIEDFQQKILLTK [KRT36]
Result: lo

Query: Field: class (protein stability index) — entry: NISDLPFLAENSAFPKMALQAKQD [LCOR]
Result: hi

Query: Field: class (protein stability index) — entry: EMETLETSTKTDSEEGSWAQTLAY [PPFIA4]
Result: hi

Query: Field: class (protein stability index) — entry: PLWPGKSDVDQLYLIIRTLGKLIP [CDKL4]
Result: lo

Query: Field: class (protein stability index) — entry: FVFSTEERTQLRLESLEDTHIMKG [TRIB1]
Result: mid

Query: Field: class (protein stability index) — entry: HCMAPPLLHLDLKPANILLDAHYH [RIPK4]
Result: lo

Query: Field: class (protein stability index) — entry: VSIIDTELKVKDSQPIDLSACTVA [TRIP13]
Result: mid

Query: Field: class (protein stability index) — entry: ALWCAAGAGHFEVVKLLVSHGANV [FEM1B]
Result: lo

Query: Field: class (protein stability index) — entry: VCRTEGTPHMLLDLSDLLQVDSLR [BRF1]
Result: lo

Query: Field: class (protein stability index) — entry: SLKDHKVSFLRSGTKLIFRRRPRQ [C2CD2L]
Result: mid

Query: Field: class (protein stability index) — entry: VYSQASTMSIPVAMETDGPLFEDV [PPP2R5C]
Result: hi

Query: Field: class (protein stability index) — entry: EHKLKVVRDQISHCTVKLRQTTGL [TRIM9]
Result: mid

Query: Field: class (protein stability index) — entry: PIIYFNDYWNLQKDYYPINESLAS [CLPTM1]
Result: lo

* * *

assay: protein stability index of a GFP-peptide fusion (GPS, HEK-293T) (PSI 1-6); higher = more stable; details: treatment: MLN4924 1 uM, 8 h; c terminus: a fixed tail appended
Experimental endpoint: protein stability index

Query: Please look up its protein stability index: VVTMTTVGYGDMHPVTIGGKIVGS [KCNA3]
Result: 2.37

Query: Please look up its protein stability index: HEVKDNYIPVIKRALNSVPVIIAA [RHOBTB3]
Result: 2.18

Query: Please look up its protein stability index: VHRDLKPENLLLASKCKGAAVKLA [CAMK2B]
Result: 2.75

Query: Please look up its protein stability index: PRPRPVSLSLRLPHQPVTAITRVS [SMTNL2]
Result: 3.58

Query: Please look up its protein stability index: NKTKPIWTRNPDDITQEEYGEFYK [HSP90AB1]
Result: 4.49

Query: Please look up its protein stability index: DLTASHDAALLEMENNHTVAITIL [MTUS2]
Result: 2.85

Query: Please look up its protein stability index: IEVQPNFEVPYYNRGLILYRLGYF [TTC32]
Result: 2.73

Query: Please look up its protein stability index: KVFEELLLDADWSINAGSWMWLSC [CRY1]
Result: 2.58

Query: Please look up its protein stability index: DGENLKNEEETPSCMASLWTAPLV [CDC25A]
Result: 4.5

Query: Please look up its protein stability index: REEEERERLQKEEEKRRREEEERL [ACBD3]
Result: 5.74

Query: Please look up its protein stability index: VWDASRAPRGTPDPGLGEGPALWL [PLEKHN1]
Result: 2.79

* * *

experiment: protein stability index of a GFP-peptide fusion (GPS, HEK-293T) (PSI 1-6); higher = more stable; settings: treatment: MLN4924 1 uM, 8 h; c terminus: a fixed tail appended
# label = MET if protein stability index >= 4 else NOT MET

Query: Decide: protein stability index of NVNRTTANNDHTVLSLACAGGHLA [ANKRD17] >= 4?
Result: NOT MET

Query: Decide: protein stability index of RSSVSRVFDCLKDGMRNKETLEGR [MED27] >= 4?
Result: MET

Query: Decide: protein stability index of TVERPFYDLWASDNPLDRPLVGQD [NOP53] >= 4?
Result: MET

Query: Decide: protein stability index of LSHLLGDAGSPYLIGLISDRLRRN [SPNS1] >= 4?
Result: NOT MET

Query: Decide: protein stability index of VSTVSHADADCFVCVFLSHGEGNH [CASP6] >= 4?
Result: NOT MET

Query: Decide: protein stability index of TPLLMAARYGHLDMVEFLLEQCSA [FEM1C] >= 4?
Result: NOT MET

* * *

assay: protein stability index of a GFP-peptide fusion (GPS, HEK-293T) (PSI 1-6); higher = more stable; conditions: treatment: MLN4924 1 uM, 8 h; c terminus: a fixed tail appended
Give protein stability index for every item shown.
Please give only the number in your answer, with no unit.

Query: Please look up its protein stability index: EDSINNSLVQLQASHQQQVLPPRQ [MYBL2]
Result: 4.72

Query: Please look up its protein stability index: GPLAETTEDFWRMLWEHNSTIVVM [PTPRD]
Result: 2.4

Query: Please look up its protein stability index: GGAQASGTLIGVGQSVTAVGRIIA [MFSD9]
Result: 3.42

Query: Please look up its protein stability index: AILLDAHHKTYDPTYSDFCQFRPP [VDR]
Result: 2.34

Query: Please look up its protein stability index: HTPGGQNQEILLPGGITSHQLLGL [TNXB]
Result: 3.47

Query: Please look up its protein stability index: KSSIIPFRALKRPLQFLGLFENSL [ZER1]
Result: 2.31

Query: Please look up its protein stability index: SRLMRRHKRRRRKQKVSRIERSSS [DVL3]
Result: 4.43

* * *

assay: protein stability index of a GFP-peptide fusion (GPS, HEK-293T) (PSI 1-6); higher = more stable; conditions: treatment: MLN4924 1 uM, 8 h; c terminus: a fixed tail appended
Experimental endpoint: protein stability index
Please give only the number in your answer, with no unit.

Query: Please look up its protein stability index: SEGRRVSFGVDEEERVRVLQGVRL [CHCHD6]
Result: 4.38

Query: Please look up its protein stability index: TPQPTALTFAKSSWARQESLQERK [AUP1]
Result: 4.48

Query: Please look up its protein stability index: EGQRQAQEYEALLNIKVKLEAEIA [KRT18]
Result: 4

Query: Please look up its protein stability index: KKENKMTWAPKNKGGEERKAEGGE [IRX6]
Result: 5.51

Query: Please look up its protein stability index: APSATIHQGEEEGPLDIWAVVKPG [FBXO34]
Result: 4.79

* * *

test: protein stability index of a GFP-peptide fusion (GPS, HEK-293T) (PSI 1-6); higher = more stable; conditions: treatment: MLN4924 1 uM, 8 h; c terminus: native
# label = Satisfied if protein stability index >= 4 else Not satisfied

Query: Decide: protein stability index of NDPSQSEVMGEPHLMVEYKLGLL [POMP] >= 4?
Result: Satisfied

Query: Decide: protein stability index of QSLLGYTPEELHAMLDVKPDADE [ETS1] >= 4?
Result: Satisfied

Query: Decide: protein stability index of GDDFELLDQSELSQLDPASSRSH [RETREG3] >= 4?
Result: Satisfied

Query: Decide: protein stability index of GKGDDSETDKNNCSNAKAVETDV [KCNA4] >= 4?
Result: Satisfied

Query: Decide: protein stability index of RRPRRVEAERPHSLIGVIRETVL [FAM189A2] >= 4?
Result: Not satisfied

Query: Decide: protein stability index of HRRDGKWQNVHFHCSGAPVAPLQ [CAMK2B] >= 4?
Result: Not satisfied

Query: Decide: protein stability index of VRANDINYQDQIPRTLEEFVGFH [FEM1B] >= 4?
Result: Not satisfied

Query: Decide: protein stability index of KPPPNSEGEQGPNGSQNSSYSQS [CCNC] >= 4?
Result: Satisfied

Query: Decide: protein stability index of HRPSTLQAASTPQAEEDWTCTIL [OAS1] >= 4?
Result: Satisfied
